TESTED_TARGET: Signal transducer and activator of transcription 3 (Mus musculus, UniProt P42227)
Sequence (P42227 whole entry): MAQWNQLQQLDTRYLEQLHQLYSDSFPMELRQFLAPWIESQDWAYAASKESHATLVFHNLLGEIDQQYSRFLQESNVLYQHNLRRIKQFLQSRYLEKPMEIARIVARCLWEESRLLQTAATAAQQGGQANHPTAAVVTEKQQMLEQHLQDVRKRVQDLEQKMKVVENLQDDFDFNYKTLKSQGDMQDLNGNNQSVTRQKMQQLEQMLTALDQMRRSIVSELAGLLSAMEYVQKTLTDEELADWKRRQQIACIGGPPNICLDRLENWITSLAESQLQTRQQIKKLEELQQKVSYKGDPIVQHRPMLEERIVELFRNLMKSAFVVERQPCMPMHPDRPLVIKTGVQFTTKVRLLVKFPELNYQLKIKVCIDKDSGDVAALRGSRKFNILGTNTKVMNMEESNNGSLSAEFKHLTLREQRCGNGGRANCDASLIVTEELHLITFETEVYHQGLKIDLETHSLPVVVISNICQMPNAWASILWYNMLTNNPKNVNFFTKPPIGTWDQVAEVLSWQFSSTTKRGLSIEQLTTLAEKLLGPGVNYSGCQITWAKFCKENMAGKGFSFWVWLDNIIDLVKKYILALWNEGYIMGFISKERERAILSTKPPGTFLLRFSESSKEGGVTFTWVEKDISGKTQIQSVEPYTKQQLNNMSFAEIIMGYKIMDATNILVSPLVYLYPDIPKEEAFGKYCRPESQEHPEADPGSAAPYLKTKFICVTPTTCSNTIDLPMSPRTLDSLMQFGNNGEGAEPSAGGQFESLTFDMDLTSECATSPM
METHOD_SUMMARY: Fluorescence Polarization Assay
Square brackets hold non-standard residues; d marks the D form. Peptide text beside a SMILES is read from it. * marks the point of attachment. pY = N[C@@H](Cc1ccc(OP(=O)(O)O)cc1)C(=O)O; NHBn = c1ccc(CN*)cc1; Ahx = NCCCCCC(=O)O; GABA = NCCCC(=O)O
MEASURE_NAME: pIC50
Give bare numbers, as −log10 of the molar value.

Please review the following examples before continuing.
>>> experimental_result("CNC(=O)[C@H](CCC(N)=O)NC(=O)[C@@H]1CCCN1C(=O)[C@H](CC(C)C)NC(=O)[C@H](Cc1ccc(OP(=O)(O)O)cc1)NC(C)=O (Ac-[pY]LPQ-NHMe)")
6.05
>>> experimental_result("CC(=O)N[C@@H](Cc1ccc(OP(=O)(O)O)cc1)C(=O)N[C@@H](CC(C)C)C(=O)N1CCC[C@H]1C(=O)NCCCC(N)=O (Ac-[pY]LP[GABA]-NH2)")
5.75
>>> experimental_result("CC(=O)N[C@@H](Cc1ccc(OP(=O)(O)O)cc1)C(=O)N[C@@H](CC(C)C)C(=O)N1CCC[C@H]1C(=O)N[C@@H](CCC(N)=O)C(=O)N(C)C (Ac-[pY]LPQ-NMe2)")
5.73

Working through the 3 compounds below one at a time, give pIC50 for each.
1. CC(=O)N[C@@H](Cc1ccc(OP(=O)(O)O)cc1)C(=O)N[C@@H](CC(C)C)C(=O)N1CCC[C@H]1C(=O)N[C@@H](CCC(N)=O)C(=O)NCc1ccccc1 (Ac-[pY]LPQ-NHBn)
2. CC(=O)N[C@@H](Cc1ccc(OP(=O)(O)O)cc1)C(=O)N[C@@H](CC(C)C)C(=O)N1CCC[C@H]1C(=O)NCCCCCC(N)=O (Ac-[pY]LP[Ahx]-NH2)
3. CC(=O)N[C@@H](Cc1ccc(OP(=O)(O)O)cc1)C(=O)N[C@@H](CC(C)C)C(=O)N1CCC[C@H]1C(=O)N1CCC(CC(N)=O)C1 (stereo partly specified)

## Result
1. 6.39
2. 5.01
3. 5.77
